- Target System: CDK6-CYCLIND3 (Homo sapiens, UniProt Q00534)
- Construct: purchased Carna
- Sequence (Q00534 whole entry): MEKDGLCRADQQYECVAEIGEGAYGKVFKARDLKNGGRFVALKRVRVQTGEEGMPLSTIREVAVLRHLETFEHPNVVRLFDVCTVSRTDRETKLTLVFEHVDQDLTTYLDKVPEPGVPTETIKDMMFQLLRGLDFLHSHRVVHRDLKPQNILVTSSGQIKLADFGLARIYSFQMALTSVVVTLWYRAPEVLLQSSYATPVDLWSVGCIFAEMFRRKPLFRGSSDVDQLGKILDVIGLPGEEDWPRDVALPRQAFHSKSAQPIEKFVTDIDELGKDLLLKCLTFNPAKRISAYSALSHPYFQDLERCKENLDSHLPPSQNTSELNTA
- Sequence (P30281 whole entry partner): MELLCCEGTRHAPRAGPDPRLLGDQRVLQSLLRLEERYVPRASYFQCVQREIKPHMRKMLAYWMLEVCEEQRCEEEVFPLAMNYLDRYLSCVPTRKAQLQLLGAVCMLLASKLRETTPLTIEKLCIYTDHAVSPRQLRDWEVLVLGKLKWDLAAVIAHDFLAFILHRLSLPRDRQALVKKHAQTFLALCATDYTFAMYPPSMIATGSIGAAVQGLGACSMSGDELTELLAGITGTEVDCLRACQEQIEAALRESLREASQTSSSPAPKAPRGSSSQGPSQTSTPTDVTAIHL
- Procedure Summary: CDK inhibition assay (microfluidic LabChip, IC50 format)
- Assay type: biochemical
- Condition: Table 4b, upper part; read-out: CDK6 IC50
pIC50: −log10 of the molar value.
Quantity Kind: pIC50

Reference set (4 entries):
{"Molecule": "CC(C)N1CCN(c2ccc(Nc3ncc4c(n3)N(C3CCCC3)C(=O)C3(CCNC3=O)C4)cn2)CC1 (stereo not drawn)", "pIC50": 8.40}
{"Molecule": "CC(C)N1CCN(c2ccc(Nc3ncc4c(n3)N(C3CCCC3)C(=O)C3(CCNC3=O)C4)c(F)c2)CC1 (stereo not drawn)", "pIC50": 4.65}
{"Molecule": "CN(C)[C@H]1CCN(c2ccc(Nc3ncc4c(n3)N(C3CCCC3)C(=O)C3(CCNC3=O)C4)cc2)C1 (stereo partly drawn)", "pIC50": 7.61}
{"Molecule": "CC(C)N1CCN(c2ccc(Nc3ncc4c(n3)N(C3CCCC3)C(=O)C3(CCN(C)C3=O)C4)cc2)CC1 (stereo not drawn) [Example D2]", "pIC50": 6.44}

I: CN1CCN(c2ccc(Nc3ncc4c(n3)N(C3CCCC3)C(=O)C3(CCNC3=O)C4)cc2F)CC1 (stereo not drawn)
II: O=C1NCCC12Cc1cnc(Nc3ccc(N4CC5(CNC5)C4)cn3)nc1N(C1CCCC1)C2=O (stereo not drawn)
III: CN1C(=O)CC2(Cc3cnc(Nc4ccc(N5CCNCC5)cc4)nc3N(C3CCCC3)C2=O)C1=O (stereo not drawn)
Query block: Could you please order the items by pIC50, going from the lowest number to the highest? Field: ranking. Enter the labels in the order requested.
Result block: III, II, I
(III: 6.70, II: 8.06, I: 8.54)
